assayed.system: BTK-WT (Homo sapiens, UniProt Q06187)
Construct: purified from insect cells as a full-length construct containing an N-terminal 6X-His tag; His6 (N); made in house; host or cells: insect cells (baculovirus Sf21 in Method B)
Sequence (Q06187 whole entry): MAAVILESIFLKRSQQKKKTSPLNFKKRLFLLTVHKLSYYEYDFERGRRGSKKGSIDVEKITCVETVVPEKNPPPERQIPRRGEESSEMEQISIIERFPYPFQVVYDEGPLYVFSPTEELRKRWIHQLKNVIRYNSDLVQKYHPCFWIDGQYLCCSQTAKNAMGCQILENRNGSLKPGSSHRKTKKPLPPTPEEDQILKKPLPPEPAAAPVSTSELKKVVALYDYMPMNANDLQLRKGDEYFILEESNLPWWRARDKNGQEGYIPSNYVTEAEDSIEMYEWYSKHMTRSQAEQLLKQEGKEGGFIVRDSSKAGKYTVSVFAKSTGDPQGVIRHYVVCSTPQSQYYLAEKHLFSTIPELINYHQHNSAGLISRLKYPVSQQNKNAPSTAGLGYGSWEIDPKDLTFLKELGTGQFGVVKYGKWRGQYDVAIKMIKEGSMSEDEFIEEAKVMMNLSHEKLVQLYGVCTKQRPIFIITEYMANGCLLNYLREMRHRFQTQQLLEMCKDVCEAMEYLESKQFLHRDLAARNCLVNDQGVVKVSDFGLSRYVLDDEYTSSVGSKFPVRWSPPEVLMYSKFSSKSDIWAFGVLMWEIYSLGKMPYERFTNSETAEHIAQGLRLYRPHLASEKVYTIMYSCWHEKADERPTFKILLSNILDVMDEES
assay.text: Btk in vitro inhibitory activity (one of Method A TR-FRET, Method B electrophoretic mobility shift, Method C radiometric filter binding)
Type: biochemical
test.settings: D-compounds panel data; read-out: IC50 BTK-WT
Quick list: IC50 per entry.

compound: Cc1nn(C)cc1Nc1nc(N2CCC[C@@H](NC(=O)c3ccc(C4CC4)cc3)[C@H]2C)cnc1C(N)=O [Example D-272]
IC50: 10 to 100 nM

compound: C[C@@H]1[C@H](NC(=O)c2ccc(C3(O)CC3)cc2)CCCN1c1cnc(C(N)=O)c(Nc2cnn(C)c2)n1 [Example D-235]
IC50: ≤ 10 nM

compound: Cn1cc(Nc2nc(N3C4CCC(NC(=O)c5ccc(C6CC6)cc5)C3CC4)cnc2C(N)=O)cn1 (single isomer, unassigned) [Example D-202]
IC50: 10 to 100 nM

compound: C[C@@H]1[C@H](NC(=O)c2ccc3c(c2)CCC(C)(C)O3)CCCN1c1cnc(C(N)=O)c(Nc2cnn(C)c2)n1 [Example D-258]
IC50: ≤ 10 nM

compound: Cn1cc(Nc2nc(N3CCC[C@@H](n4ccc5cc(C6CC6)ncc5c4=O)C3)cnc2C(N)=O)cn1 [Example D-225]
IC50: ≤ 10 nM

compound: C[C@@H]1[C@H](NC(=O)c2ccc(C3CC3)cc2)CCCN1c1cnc(C(N)=O)c(Nc2ccc(OC3C[C@H]4CC[C@@H](C3)N4C)cc2)n1 (stereo partly drawn) [Example D-104]
IC50: ≤ 10 nM

compound: C[C@@H]1[C@H](NC(=O)c2ccc(C3CC3)cc2)CCCN1c1nnc(C(N)=O)c(Nc2cnn(C)c2)n1 [Example D-277]
IC50: ≤ 10 nM

Cited source: patent US20210070748A1
